TARGET_OF_ASSAY: rat liver glucocorticoid receptors (Rattus norvegicus, UniProt P06536)
Construct: from tissue; host or cells: rat liver
TEST_METHOD_NOTES: Affinity to rat liver glucocorticoid receptors (method of Baxter et al.)
Format: binding
MEASURED_PARAMETER: Kd (µM)
Supply the numeric figure in µM, leaving out any unit text.

Incoming: Need Kd of CC1(C)O[C@@H]2C[C@H]3[C@@H]4C[C@H](F)C5=CC(=O)C=C[C@]5(C)[C@@]4(F)[C@@H](O)C[C@]3(C)[C@]2(C(=O)CO)O1 [fluocinolon-acetonide, reference compound] , thanks.
Outgoing: 0.015

---

Consider the following compounds; for each one, report its pKd.
TARGET_OF_ASSAY: rat liver glucocorticoid receptors (Rattus norvegicus, UniProt P06536)
Construct: from tissue; host or cells: rat liver
Sequence (P06536 1-795): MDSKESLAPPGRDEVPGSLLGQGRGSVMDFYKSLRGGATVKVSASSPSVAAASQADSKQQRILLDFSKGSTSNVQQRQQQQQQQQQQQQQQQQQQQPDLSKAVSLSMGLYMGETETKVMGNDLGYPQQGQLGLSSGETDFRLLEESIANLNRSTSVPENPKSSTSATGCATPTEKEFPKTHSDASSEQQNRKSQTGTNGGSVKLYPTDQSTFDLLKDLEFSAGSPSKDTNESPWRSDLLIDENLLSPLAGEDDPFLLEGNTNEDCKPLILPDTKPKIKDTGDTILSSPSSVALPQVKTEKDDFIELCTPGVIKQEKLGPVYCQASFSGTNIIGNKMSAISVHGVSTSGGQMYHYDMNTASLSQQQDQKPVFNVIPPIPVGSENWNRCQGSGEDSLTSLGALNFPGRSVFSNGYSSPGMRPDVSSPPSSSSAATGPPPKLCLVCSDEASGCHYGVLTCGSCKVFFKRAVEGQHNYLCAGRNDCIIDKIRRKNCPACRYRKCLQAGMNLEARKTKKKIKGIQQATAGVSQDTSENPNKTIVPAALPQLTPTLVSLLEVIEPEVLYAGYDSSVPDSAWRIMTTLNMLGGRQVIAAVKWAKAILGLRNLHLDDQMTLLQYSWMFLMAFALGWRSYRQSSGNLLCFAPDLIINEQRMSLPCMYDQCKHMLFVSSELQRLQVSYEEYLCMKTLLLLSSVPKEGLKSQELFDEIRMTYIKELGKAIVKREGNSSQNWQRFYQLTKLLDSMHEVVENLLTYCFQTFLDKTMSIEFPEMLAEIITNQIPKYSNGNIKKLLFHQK
TEST_METHOD_NOTES: Affinity to rat liver glucocorticoid receptors (method of Baxter et al.)
Format: binding
DETAILS: rat liver glucocorticoid receptors; read-out: apparent dissociation constant
pKd field: float, defined as -log10 of concentration (mol/L).

Incoming: Need pKd of CC1(C)O[C@@H]2C[C@H]3[C@@H]4CC(Br)=C5C=C(Cl)C=C[C@]5(C)[C@@]4(F)[C@@H](O)C[C@]3(C)[C@]2(C(=O)CO)O1 [3-chloro-6-bromo-TCA] , thanks.
Outgoing: 7.22

Incoming: Need pKd of CC1(C)O[C@@H]2C[C@H]3[C@@H]4CC=C5C=C(Cl)C=C[C@]5(C)[C@@]4(F)[C@@H](O)C[C@]3(C)[C@]2(C(=O)CO)O1 [Example 3-Chloro-TCA] , thanks.
Outgoing: 7.52

Incoming: Need pKd of CC1(C)O[C@@H]2C[C@H]3[C@@H]4CC(F)=C5C=C(Cl)C=C[C@]5(C)[C@@]4(F)[C@@H](O)C[C@]3(C)[C@]2(C(=O)CO)O1 [Example 3-chloro-FCA] , thanks.
Outgoing: 7.60
